# assay_info: photoluminescence quantum yield (fraction); solvent given as SMILES
# study_conditions: in CC#N
experimental_endpoint: photoluminescence quantum yield
Respond with the number and no other words.

>  <compound>
CCN(CC)c1ccc(/C=N/C2CCCCC2/N=C/c2ccc(N(CC)CC)cc2O)c(O)c1 (stereo not drawn)

>  <endpoint_result>
0.068

$$$$
>  <compound>
c1ccc(Nc2nc(Nc3ccccc3)nc(Nc3cc4ccc5cccc6ccc(c3)c4c56)n2)cc1

>  <endpoint_result>
0.19

$$$$
>  <compound>
N#Cc1nn(-c2cccc(C(F)(F)F)c2)nc1N1CCCC1

>  <endpoint_result>
0.801

$$$$
>  <compound>
COc1cc2c(cc1/C=C/C1=CC(=C(C#N)C#N)CC(C)(C)C1)c1ccccc1n2C

>  <endpoint_result>
0.031

$$$$
>  <compound>
COc1ccc2c(c1)sc1[n+]2[B-](F)(F)OC(c2ccc(N(C)C)cc2)=N1

>  <endpoint_result>
0.38

$$$$
>  <compound>
Cc1sc(Cl)cc1-c1nc(-c2ccc(Cl)cc2)[nH]c1-c1cc(Cl)sc1C

>  <endpoint_result>
0.114

$$$$
>  <compound>
CCCCCN(c1ccccc1)c1ccc2c(c1)C(CC)(CC)c1cc(/C=C/c3ccc(/C=C(\C#N)C(=O)O)s3)ccc1-2

>  <endpoint_result>
0.025

$$$$
>  <compound>
CN(c1ccccc1)c1ccc(/C=C/c2ccccc2)cc1

>  <endpoint_result>
0.31

$$$$
>  <compound>
Cc1cc(C)c2nc3c(=O)[nH]c(=O)[nH]c3nc2c1

>  <endpoint_result>
0.02

$$$$
>  <compound>
C[C@]12SC(=O)C=C1c1nc(-c3ccccc3O)[nH]c1C1=CC(=O)S[C@@]12C

>  <endpoint_result>
0.01

$$$$

Documented photoluminescence quantum yield of F[B-]1(F)n2c(-c3cccs3)cc(-c3ccccc3)c2N=C2C(c3ccccc3)=CC(c3cccs3)=[N+]21 : 0.46

Documented photoluminescence quantum yield of C(#Cc1nccnc1C#Cc1ccccc1)c1ccccc1 : 0.07

Documented photoluminescence quantum yield of COC(=O)C(NC(=O)OC(C)(C)C)c1ccc2oc(-c3ccc(OC(=O)c4ccccc4)cc3OC(=O)c3ccccc3)nc2c1 (stereo not drawn) : 0.003
